Assignment: determine reported Max Fold, T-L for the given molecules.
Tested on: human 20S proteasome, tryptic-like (T-L) site
Construct: purchased Boston Biochem, Inc. (Cambridge, MA)
measurementProtocol: Fluorogenic peptide degradation 20S proteasome activity assay, Boc-LRR-AMC (T-L activity)
Assay type: biochemical
conditionContext: Boc-LRR-AMC substrate
Give your result in fold as a bare value.

(Q) Lab request: please report Max Fold, T-L under test system human 20S proteasome, tryptic-like (T-L) site for COc1ccc2c(c1)N=C(c1ccccc1)N(C1CCN(Cc3ccccc3)CC1)C2c1ccccc1 (stereo not shown)
(A) 8.7

(Q) Lab request: please report Max Fold, T-L under test system human 20S proteasome, tryptic-like (T-L) site for COc1ccc2c(c1)N=C(c1ccccc1)N(c1ccccc1)C2c1ccccc1 (stereo not shown)
(A) 15.0

(Q) Lab request: please report Max Fold, T-L under test system human 20S proteasome, tryptic-like (T-L) site for COc1ccc2c(c1)N=C(c1ccccc1)N(Cc1ccccc1)C2c1ccccc1 (stereo not shown)
(A) 11.7

(Q) Lab request: please report Max Fold, T-L under test system human 20S proteasome, tryptic-like (T-L) site for COc1ccc2c(c1)N=C(c1ccccc1)N(C1CCN(C)CC1)C2c1ccccc1 (stereo not shown)
(A) 1.0
